All figures here come from patent US10100064B2.

target: PI3Kdelta (Homo sapiens, UniProt O00329); construct: Millipore 14-604; assay: HTRF PI3K biochemical assay, delta isoform; settings: 0.3 nM enzyme, 100 uM ATP, 5 uM PIP2, form screened (Neutral or TFA salt) given per compound
Sequence (O00329 whole entry, canonical isoform): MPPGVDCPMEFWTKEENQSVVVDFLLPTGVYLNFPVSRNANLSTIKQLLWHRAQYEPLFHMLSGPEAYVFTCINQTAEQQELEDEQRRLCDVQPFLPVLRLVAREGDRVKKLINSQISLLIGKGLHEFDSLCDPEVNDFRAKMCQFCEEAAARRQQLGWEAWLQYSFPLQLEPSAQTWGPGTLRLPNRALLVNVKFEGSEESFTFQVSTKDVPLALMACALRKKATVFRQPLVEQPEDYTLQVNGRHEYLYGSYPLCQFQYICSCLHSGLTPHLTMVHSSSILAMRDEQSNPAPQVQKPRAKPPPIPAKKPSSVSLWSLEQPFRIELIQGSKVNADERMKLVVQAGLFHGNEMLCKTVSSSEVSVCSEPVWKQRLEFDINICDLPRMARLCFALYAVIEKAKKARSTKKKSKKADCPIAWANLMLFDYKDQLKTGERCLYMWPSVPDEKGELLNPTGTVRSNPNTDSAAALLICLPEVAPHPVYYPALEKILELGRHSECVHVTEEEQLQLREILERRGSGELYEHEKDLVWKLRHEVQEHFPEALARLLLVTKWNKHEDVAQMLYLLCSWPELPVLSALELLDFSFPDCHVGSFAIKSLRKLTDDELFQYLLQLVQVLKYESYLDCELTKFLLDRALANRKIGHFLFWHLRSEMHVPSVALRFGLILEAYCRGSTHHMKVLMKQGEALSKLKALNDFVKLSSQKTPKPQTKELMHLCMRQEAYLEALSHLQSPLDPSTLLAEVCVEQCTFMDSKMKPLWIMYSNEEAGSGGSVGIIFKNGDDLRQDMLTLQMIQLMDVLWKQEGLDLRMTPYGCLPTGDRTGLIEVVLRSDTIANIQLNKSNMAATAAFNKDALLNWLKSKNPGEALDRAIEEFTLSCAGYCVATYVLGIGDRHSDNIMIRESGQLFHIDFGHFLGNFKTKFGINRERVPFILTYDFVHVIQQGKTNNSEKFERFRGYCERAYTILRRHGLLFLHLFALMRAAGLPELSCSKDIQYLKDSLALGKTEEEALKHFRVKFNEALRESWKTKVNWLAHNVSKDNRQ
Sequence (P27986 whole entry partner, canonical isoform): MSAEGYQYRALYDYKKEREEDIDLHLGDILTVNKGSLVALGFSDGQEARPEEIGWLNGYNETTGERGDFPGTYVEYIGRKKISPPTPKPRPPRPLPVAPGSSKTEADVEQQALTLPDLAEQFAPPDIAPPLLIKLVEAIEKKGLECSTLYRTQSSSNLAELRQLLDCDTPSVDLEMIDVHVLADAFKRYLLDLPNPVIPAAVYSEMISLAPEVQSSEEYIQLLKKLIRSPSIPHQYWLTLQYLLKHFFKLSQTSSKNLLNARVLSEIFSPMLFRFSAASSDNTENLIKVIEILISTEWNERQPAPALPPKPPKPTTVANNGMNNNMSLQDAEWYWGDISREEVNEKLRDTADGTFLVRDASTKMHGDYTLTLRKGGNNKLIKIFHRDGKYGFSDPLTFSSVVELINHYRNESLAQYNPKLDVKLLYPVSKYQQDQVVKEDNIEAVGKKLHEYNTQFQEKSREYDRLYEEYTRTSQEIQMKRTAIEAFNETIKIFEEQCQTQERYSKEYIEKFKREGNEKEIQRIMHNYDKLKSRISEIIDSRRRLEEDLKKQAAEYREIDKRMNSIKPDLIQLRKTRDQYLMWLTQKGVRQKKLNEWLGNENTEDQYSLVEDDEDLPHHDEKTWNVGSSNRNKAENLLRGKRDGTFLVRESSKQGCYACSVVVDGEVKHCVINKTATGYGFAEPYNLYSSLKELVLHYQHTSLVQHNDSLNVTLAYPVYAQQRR
assay_endpoint: IC50
Answer format reminder: number followed by unit.

Q) Recorded IC50 for CCn1c(-c2ccc(C(F)(F)F)cc2)nc2c(NC3CCc4[nH]nc(C(C)C)c4C3)ncnc21 (single isomer, unassigned) [Compound 2-8] , please?
A) 210 nM

Q) Please do the same for CCn1c(-c2cnc(C)nc2)nc2c(NC3CCc4ncn(C(C)C)c4C3C)ncnc21 (single isomer, unassigned) [Compound 5-22] as well.
A) 260 nM

Q) Continue with CCn1c(-c2cnc(OC)c(Cl)c2)nc2c(NC3CCc4nnc(C(C)C)n4C3)ncnc21 (single isomer, unassigned) [Compound 1-22]
A) 221 nM

Q) Same question for CCn1c(-c2cnc(C)nc2)nc2c(NC3CCc4c(c(C(C)C)nn4C(=O)CC(C)(C)C)C3)ncnc21 (racemic) [Compound 2-15] please.
A) 78 nM

Q) Another molecule: CCn1c(-c2cnc(C)nc2)nc2c(OC3CCc4nnc(C5CC5)n4C3)ncnc21 (single isomer, unassigned) [Compound 1-32]
A) 4.4 nM

Q) Input CCn1c(-c2cnc(C)nc2)nc2c(NC3CCc4c(c(C(C)C)nn4C(C)=O)C3)ncnc21 (racemic) [Compound 2-12]
A) 15 nM

---

molecular target: PI3Kdelta (Homo sapiens); construct: Millipore 14-604; test: HTRF PI3K biochemical assay, delta isoform; conditions: 0.3 nM enzyme, 100 uM ATP, 5 uM PIP2, form screened (Neutral or TFA salt) given per compound
Sorting guide: entries reporting IC50 beneath 4 nM go in the Y pile, the rest go in the N pile.

Q) Hello, I'm reviewing records and need to know if IC50 of CCn1c(-c2cnc(C)nc2)nc2c(NC3CCc4c(c(C(C)C)nn4C(=O)OC)C3)ncnc21 (single isomer, unassigned) is below 4 nM. Could you check?
A) Y

Q) Request: CCc1nn(CC)c2c1CC(Oc1ncnc3c1nc(-c1cnc(C)nc1)n3CC)CC2 (racemic)
A) N

Q) Cool, now CCn1c(-c2cnc(C)nc2)nc2c(NC3CCc4ncn([C@H]5C[C@@H](OC)C5)c4C3)ncnc21 (single isomer, unassigned) [Compound 5-13]
A) N

Q) Queued: CCn1ncc(-c2nc3c(NC4CCc5nnc(C6CC6)n5C4)ncnc3n2CC)c1C (racemic)
A) Y

Q) Input CCn1c(-c2cnc(C)nc2)nc2c(NC3CCc4ncc(C(C)C)n4C3)ncnc21 (single isomer, unassigned) [Compound 4-4]
A) N

Q) Next up: CCc1nnc2n1CC(Nc1ncnc3c1nc(-c1cnc(C)nc1)n3CC)CC2 (single isomer, unassigned) [Compound 1-6]
A) Y

Q) Same lookup for CCn1c(-c2cnc(C)nc2)nc2c(NC3(C)CCc4[nH]nc(C(C)C)c4C3)ncnc21 (single isomer, unassigned) [Compound 2-6] , please.
A) N

Q) Again, but for CCn1c(-c2cnc(C)nc2)nc2c(NC3Cc4c(ncn4C(C)C)C(C)C3)ncnc21 (single isomer, unassigned) [Compound 5-17]
A) N

Q) Same thing, different compound: CCn1c(-c2cnc(C)nc2)nc2c(N[C@H]3Cc4nnc(C5CC5)n4C3)ncnc21
A) N

Q) Follow-up item: CCn1c(-c2ccc(C(F)(F)F)nc2)nc2c(NC3CCc4nnc(C(C)C)n4C3)ncnc21 (single isomer, unassigned) [Compound 1-18]
A) Y

Q) Further, for CCn1c(-c2cnc(C)nc2)nc2c(NC3CCc4ncn(C(C)C)c4C3)ncnc21 (single isomer, unassigned) [Compound 5-16] ?
A) N

Q) One more compound: CCn1c(-c2cnc(C)nc2)nc2c(NC3CCc4ncc(C(C)C)n4C3)ncnc21 (single isomer, unassigned) [Compound 4-3]
A) Y

---

target: PI3Kdelta (Homo sapiens, UniProt O00329); construct: Millipore 14-604; experiment: HTRF PI3K biochemical assay, delta isoform; details: 0.3 nM enzyme, 100 uM ATP, 5 uM PIP2, form screened (Neutral or TFA salt) given per compound
assay_endpoint: pIC50
Field pIC50 (float): negative decimal logarithm of the concentration in molar.

Q) Dear colleague, I am looking for the recorded pIC50 of the following compound: CCn1c(-c2cnc(C)nc2)nc2c(OC3CCc4nnc(C5CC5)n4C3)ncnc21 (single isomer, unassigned) [Compound 1-31]
A) 6.66

Q) Item: CCn1c(-c2cnc(C)nc2)nc2c(NC3CCc4nnc(C(C)C)n4C3)ncnc21 (single isomer, unassigned) [Compound 1-5]
A) 8.96

Q) Lookup CCn1c(-c2ccc(C(F)(F)F)cc2)nc2c(NC3CCc4ncn(C5CC5)c4C3)ncnc21 (single isomer, unassigned) [Compound 5-5]
A) 8.29

Q) Same question, CCn1c(-c2cnc(C)nc2)nc2c(OC3CCc4nnc(C5CCC5)n4C3)ncnc21 (single isomer, unassigned) [Compound 1-36] this time
A) 8.96

Q) Lookup CCc1nc2c(n1C1CC1)CC(Nc1ncnc3c1nc(-c1cnc(C)nc1)n3CC)CC2 (single isomer, unassigned)
A) 7.68

Q) // query: CCn1c(-n2cnc(C(F)(F)F)c2)nc2c(NC3CCc4nnc(C(C)C)n4C3)ncnc21 (single isomer, unassigned)
A) 7.62

Q) Continue with CCn1c(-c2ccc(C(F)(F)F)cc2)nc2c(NC3CCc4[nH]nc(C(C)C)c4C3)ncnc21 (single isomer, unassigned) [Compound 2-7]
A) 8.77

Q) Quick one: CCn1c(-c2cnc(C)nc2)nc2c(NC3CCc4c(c(C(C)C)nn4C(=O)OC(C)(C)C(F)(F)F)C3)ncnc21 (racemic)
A) 8.59

Q) Same read-out for CCn1c(-c2ccc(C(F)(F)F)nc2)nc2c(NC3CCc4nnc(C5CC5)n4C3)ncnc21 (racemic) ?
A) 8.39

Q) Also CCn1c(-c2cnc(C)nc2)nc2c(NC3CCc4ncc(C5CC5)n4C3)ncnc21 (single isomer, unassigned) [Compound 4-2] , if possible.
A) 6.54

Q) Further, for CCn1c(-c2cnc(C)nc2)nc2c(OC3CCc4nnc(C(C)C)n4C3)ncnc21 (single isomer, unassigned) [Compound 1-33] ?
A) 7.46

Q) Next compound: CCn1c(-c2cnc(C)nc2)nc2c(NC3CCc4nnc(C(C)C)n4C3)ncnc21 (single isomer, unassigned) [Compound 1-4]
A) 7.34

---

Target: PI3Kdelta (Homo sapiens, UniProt O00329)
Construct: Millipore 14-604
Assay: HTRF PI3K biochemical assay, delta isoform
Conditions: 0.3 nM enzyme, 100 uM ATP, 5 uM PIP2, form screened (Neutral or TFA salt) given per compound
From the text: HTRF PI3K Biochemical Assay to Measure Intrinsic Potency of Compound Inhibitors The PI3-Kinase biochemical assays were developed to measure the intrinsic potency and compound dependent inhibition of the alpha, beta, delta, and gamma PI3K isoform enzymes. […] In the absence of PIP3, an HTRF (Homogeneous Time-Resolved Fluorescence energy transfer) complex is formed consisting of europium (Eu)-labeled anti-GST, GSTtagged GRP1-PH domain, biotin-PIP3 and streptavidin conjugated APC. […]
assay_endpoint: IC50 (nM)
Numbers only; they are read as nM.

Q) Need IC50, item CCn1c(-c2cnc(C)nc2)nc2c(OC3CCc4nnc(C5CCC5)n4C3)ncnc21 (single isomer, unassigned) [Compound 1-35]
A) 19

Q) Same question for CCn1c(-c2ccc(S(C)(=O)=O)nc2)nc2c(NC3CCc4nnc(C5CC5)n4C3)ncnc21 (single isomer, unassigned) please.
A) 8.3

Q) // query: CCn1c(-c2ccc(C(F)(F)F)cc2)nc2c(NC3CCc4nnc(C5CC5)n4C3)ncnc21 (single isomer, unassigned) [Compound 1-29]
A) 49

Q) // same read-out, input: CCn1c(-c2cnc(C)nc2)nc2c(NC3Cc4cnn(Cc5ccccc5)c4C3)ncnc21 (racemic)
A) 6.1

Q) Field entry: CCc1nnc2n1CC(Nc1ncnc3c1nc(-c1cnc(C)nc1)n3CC)CC2 (single isomer, unassigned) [Compound 1-7]
A) 13

Q) Okay, and CCn1c(I)nc2c(NC3CCc4nnc(C5CC5)n4C3)ncnc21 (single isomer, unassigned) [Compound 1-26] ?
A) 12

Q) Proceed to CCn1c(-c2cnc(C)nc2)nc2c(NC3CCc4nnc(-c5ccccc5)n4C3)ncnc21 (single isomer, unassigned)
A) 5.9

Q) Again, but for CCn1c(-c2ccc(C(F)F)cc2)nc2c(NC3CCc4nnc(C(C)C)n4C3)ncnc21 (single isomer, unassigned)
A) 3.5

Q) Now the molecule CCn1c(-c2cnc(C)nc2)nc2c(NC3CCc4[nH]nc(C5CC5)c4C3)ncnc21 (single isomer, unassigned)
A) 2.9

Q) Item: CCn1c(C(=O)NCC(F)(F)F)nc2c(NC3CCc4ncn(C5CC5)c4C3)ncnc21 (single isomer, unassigned)
A) 51

Q) Entry to check: CCn1c(-c2cnc(C)nc2)nc2c(NC3CCc4c(c(C(C)C)nn4CCO)C3)ncnc21 (single isomer, unassigned)
A) 2.1
